Molecular target: UniProt:A0A1S6PU99
Sequence (A0A1S6PU99 entry or part of it): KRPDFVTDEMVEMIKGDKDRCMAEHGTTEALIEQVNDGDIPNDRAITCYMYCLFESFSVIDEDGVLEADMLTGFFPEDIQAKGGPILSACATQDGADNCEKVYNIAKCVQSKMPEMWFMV
Experiment: Competitive binding assay with 1-NPN as fluorescent reporter, McinOBP4-Wt
Conditions: recombinant McinOBP4-Wt, pH = 7.4, displacement of 1-NPN; read-out: IC50
Experimental: One cm light path fluorimeter quartz cuvette was used on a FluoroMax-4 (Horiba Scientific, USA) spectrophotometer at room temperature for fluorescence spectra recording and excitation wavelength of 337 nm was chosen and 300–500 nm for the emission with a 5 nm slit width. Spectra were recorded with 2 μM McinOBP4 in 50 mM Tris-HCl of different pH value, while ligands were added as 1 mM methanol solutions. The probe was excited at 337 nm and emission spectra were recorded between 300 and 500 nm. […]
Please go through the items and note down their pIC50.
Value format note: pIC50 is -log10 of concentration (mol/L); just state the number.

Specify pIC50 for C=C1CC/C=C(\C)CC[C@@H]2[C@@H]1CC2(C)C (relative stereo) [Trans Caryophelle] , system UniProt:A0A1S6PU99.
4.61

Write pIC50 of C=CC(O)CC (stereo not drawn) [1-Penten-3-ol] ; system used: UniProt:A0A1S6PU99
4.60

Fill in: pIC50 on UniProt:A0A1S6PU99, entry CCCCCCC=O [Heptanal]
4.78

Give the observed pIC50 of CCCCC(C)CC(C)C (stereo not drawn) [2,4 Dimethyl Octane] for UniProt:A0A1S6PU99.
4.33

Report pIC50 from UniProt:A0A1S6PU99 testing of CCCCCC/C=C/C=O [Trans-2-Nonenal]
4.78

Report measured pIC50 on UniProt:A0A1S6PU99; entry: C=C(C)[C@H]1CC=C(C)CC1 [Limonene]
5.28

Specify pIC50 for C=CC(=C)CCC=C(C)C [Myrcene] , system UniProt:A0A1S6PU99.
4.64

Provide UniProt:A0A1S6PU99 pIC50 reading for CCCCCCCCC=O [Nonanal] .
4.79

# return pIC50 of CCCCCc1ccco1 [2-Pentylfuran] (system: UniProt:A0A1S6PU99)
4.70

Quote pIC50 with test system UniProt:A0A1S6PU99 for C=C/C(C)=C/C/C=C(\C)CCC=C(C)C [Farnsene]
4.56

Please tell me the measured pIC50 for CCCCC/C=C/C=O [Trans-2-Octenal] ; system: UniProt:A0A1S6PU99.
4.81

Under UniProt:A0A1S6PU99: report pIC50 of CC/C=C/CCOC(C)=O [Trans-3-Hexen-1-ol-Acetate] .
5.05
